# TARGET ENTITY: T1, ProQ (minimal ProQ, FinO domain with short N- and C-terminal extensions) (Neisseria meningitidis, UniProt Q9JY98 1-141)
# T1 sequence: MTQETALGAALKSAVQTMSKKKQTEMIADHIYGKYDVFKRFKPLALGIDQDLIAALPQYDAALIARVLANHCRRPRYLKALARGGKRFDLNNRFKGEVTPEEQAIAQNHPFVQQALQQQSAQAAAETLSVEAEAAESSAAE
# ASSAY OVERVIEW: EMSA; max bound 89%; 25 mM Tris pH 7.5, 150 mM NaCl, 5% glycerol, 1 mM MgCl2, 1 nM 32P-RNA, ProQ up to 50 nM, 30 min at room temperature; 6% native gel at 4 C
# TEST SETTINGS: protein: recombinant; tags: N-terminal His6-TEV, cleaved; one extra N-terminal Ser remains; label: 5'-32P; terminator hairpin, 6-U 3' tail, 3 U paired with upstream A
EXPERIMENTAL READOUT: Kd

Please fill in: Kd reported for GGGAUUUCAGUUUGAAAGCAAAGCCUCCGACUGUUCGGAGGCUUUUUU (structured_RNA) [rpmG-3'] = 1 nM
